- SYSTEM: T1, Human Factor P (human, UniProt P27918 29-469)
- T1 construct: Bought protein (Complement Technology cat# A139) in SET and Biacore; Factor P of human serum in the functional assays; also called FP; human FP
- T1 sequence (P27918 29-469 limits assumed): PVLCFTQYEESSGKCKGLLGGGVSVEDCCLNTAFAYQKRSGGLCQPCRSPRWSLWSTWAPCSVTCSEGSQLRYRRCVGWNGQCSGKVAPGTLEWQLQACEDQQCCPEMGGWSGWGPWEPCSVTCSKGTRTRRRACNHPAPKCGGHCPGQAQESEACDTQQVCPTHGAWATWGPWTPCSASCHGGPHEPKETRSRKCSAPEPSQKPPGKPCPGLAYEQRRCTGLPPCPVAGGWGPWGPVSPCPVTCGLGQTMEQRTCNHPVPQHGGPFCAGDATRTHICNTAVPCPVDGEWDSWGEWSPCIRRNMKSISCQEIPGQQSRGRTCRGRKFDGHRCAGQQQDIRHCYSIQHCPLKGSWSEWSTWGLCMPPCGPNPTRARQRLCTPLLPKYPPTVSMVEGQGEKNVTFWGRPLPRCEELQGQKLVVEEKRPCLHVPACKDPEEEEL
- MEASUREMENT DESCRIPTION: Biacore SPR, captured Factor P
ASSAY METRIC: kon

INSERT INTO assay_data (binder, measured_result) VALUES
  ('NVS804 (Fab, V domains shown) VH: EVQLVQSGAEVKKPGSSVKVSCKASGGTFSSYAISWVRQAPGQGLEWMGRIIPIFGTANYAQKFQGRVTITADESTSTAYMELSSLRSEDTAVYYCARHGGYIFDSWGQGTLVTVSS VL: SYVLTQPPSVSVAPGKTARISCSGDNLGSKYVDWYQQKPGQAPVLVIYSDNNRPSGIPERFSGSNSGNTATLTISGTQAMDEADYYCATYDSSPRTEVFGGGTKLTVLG', '2.72e+06 M⁻¹ s⁻¹');
